# TARGET ENTITY: UniProtKB P25103
# ASSAY OVERVIEW: NK1 receptor binding, [3H]substance P displacement, CHO cell membranes
# TEST CONTEXT: first value of the cell pKi NK1/NK3; human NK1 receptor, [3H]substance P
The following compounds are shown together with reported Ki values.
Reply with the number, then its unit.

Some compounds with known Ki results, for comparison:
1) CN(C(=O)C(C)(C)c1cc(Cl)cc(OC(F)F)c1)c1cnc(N2CCC[C@H]2CO)cc1-c1ccccc1Cl ... 3.89 nM
2) CCN(CCO)c1cc(-c2ccccc2C)c(N(C)C(=O)C(C)(C)c2cc(C(F)(F)F)cc(C(F)(F)F)c2)cn1 ... 3.63 nM
3) CC(=O)N[C@@H]1CCN(c2cc(-c3ccccc3Cl)c(N(C)C(=O)C(C)(C)c3cc(C(F)(F)F)cc(C(F)(F)F)c3)cn2)C1 ... 0.631 nM
4) CC(=O)N(C)[C@H]1CCN(c2cc(-c3ccc(F)cc3C)c(N(C)C(=O)C(C)(C)c3cc(C(F)(F)F)cc(C(F)(F)F)c3)cn2)C1 ... 2.34 nM
5) Cc1ccccc1-c1cc(N2CCC[C@H]2CO)ncc1N(C)C(=O)C(C)(C)c1cc(F)cc(C(F)(F)F)c1 ... 2.19 nM

Item CN(C(=O)C(C)(C)c1cc(C(F)(F)F)cc(C(F)(F)F)c1)c1cnc(N2CCC[C@@H]2CO)cc1-c1ccccc1Cl with UniProtKB P25103 - Ki?
1.07 nM

Now give it for CN(C(=O)C(C)(C)c1cc(Cl)cc(Cl)c1)c1cnc(NCCO)cc1-c1ccccc1Cl too.
2.75 nM

Now give it for CN(C(=O)C(C)(C)c1cc(C(F)(F)F)cc(C(F)(F)F)c1)c1cnc(N2CC[C@H](O)[C@H]2CO)cc1-c1ccccc1Cl too.
1.66 nM

Now give it for CN(C(=O)C(C)(C)c1cc(C(F)(F)F)cc(C(F)(F)F)c1)c1cnc(N(CCO)CCO)cc1-c1ccc(Cl)cc1Cl too.
1.66 nM

Now give it for Cc1cc(F)ccc1-c1cc(N2C[C@H](O)C[C@H]2CO)ncc1N(C)C(=O)C(C)(C)c1cc(C(F)(F)F)cc(C(F)(F)F)c1 too.
1.66 nM

Now give it for CN(C(=O)C(C)(C)c1cc(C(F)(F)F)cc(C(F)(F)F)c1)c1cnc(N2CCC[C@H]2CO)cc1-c1ccccc1Cl too.
1.66 nM

Now give it for CN(C(=O)C(C)(C)c1cc(C(F)(F)F)cc(C(F)(F)F)c1)c1cnc(N2C[C@H](O)C[C@H](O)C2)cc1-c1ccccc1Cl too.
2 nM

Now give it for CN(C(=O)C(C)(C)c1cc(C(F)(F)F)cc(C(F)(F)F)c1)c1cnc(N2CCCCC2CCO)cc1-c1ccccc1Cl (racemic) too.
2.51 nM

###

# TARGET ENTITY: human NK1 receptor (Homo sapiens)
# Sequence (P25103 whole entry): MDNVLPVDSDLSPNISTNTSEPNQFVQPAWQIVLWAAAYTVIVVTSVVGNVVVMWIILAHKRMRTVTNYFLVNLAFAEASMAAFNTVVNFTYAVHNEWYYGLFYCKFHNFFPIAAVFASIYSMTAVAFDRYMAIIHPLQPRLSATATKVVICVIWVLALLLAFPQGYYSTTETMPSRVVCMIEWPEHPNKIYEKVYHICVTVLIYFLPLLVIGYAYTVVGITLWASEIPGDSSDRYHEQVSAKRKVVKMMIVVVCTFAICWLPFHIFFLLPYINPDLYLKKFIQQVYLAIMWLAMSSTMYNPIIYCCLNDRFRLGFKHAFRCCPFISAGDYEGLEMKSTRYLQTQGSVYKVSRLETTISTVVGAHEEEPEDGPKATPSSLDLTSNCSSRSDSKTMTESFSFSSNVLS
# ASSAY OVERVIEW: NK1 receptor binding, [3H]substance P displacement, CHO cell membranes
# TEST CONTEXT: first value of the cell NK1/NK3; read-out: pKi NK1 (converted)
Lab note - cut at 2 nM for Ki: Criterion met if strictly below, Criterion not met if not.

Illustrative cases are given below, each with its answer.
1) CN(C(=O)C(C)(C)c1cc(C(F)(F)F)cc(C(F)(F)F)c1)c1cnc(N2C[C@@H](O)C[C@H]2CO)cc1-c1ccc(F)cc1F ... Criterion met
2) CN(C(=O)C(C)(C)c1cc(C(F)(F)F)cc(C(F)(F)F)c1)c1cnc(N2CC[C@H](O)[C@H]2CO)cc1-c1ccc(F)cc1CO ... Criterion met
3) Cc1ccccc1-c1cc(N2C[C@@H](F)C[C@H]2CO)ncc1N(C)C(=O)C(C)(C)c1cc(C(F)(F)F)cc(C(F)(F)F)c1 ... Criterion not met

Regarding Cc1ccccc1-c1cc(N2C[C@H](F)C[C@H]2CO)ncc1N(C)C(=O)C(C)(C)c1cc(C(F)(F)F)cc(C(F)(F)F)c1 , kindly confirm whether its Ki is beneath 2 nM.
Criterion not met

Now give it for Cc1ccccc1-c1cc(N2C[C@H](O)C[C@H]2CO)ncc1N(C)C(=O)C(C)(C)c1cc(C(F)(F)F)cc(C(F)(F)F)c1 too.
Criterion met

All values here come from patent US8404708B2.
